# System: MDA-MB-231 VIM RFP cells
# experiment: CCK-8 viability assay, cancer cells
# Assay type: cell-based, human
# assay.conditions: Homo sapiens, MDA-MB-231, 24 h, read-out: IC50 Cancer MDA-MB-231 VIM RFP
test.readout: pIC50
Keep in mind that pIC50 stands for -log10 of concentration in molar terms.

Please list pIC50 recorded for the compound COc1ccc2cc3[n+](cc2c1OC)CCc1cc2c(cc1-3)OCO2 [Berberine chloride (BBC), berberine chloride]
4.32
